Target: T1, Hu HER3: CD33-[Human HER3, residues 20-640]-TAG (human, UniProt P21860 20-640)
T1 construct: also called hu HER3-Tag; HER3-Tag; not shown: C-terminal TAG (e.g., FLAG TAG)
T1 sequence (P21860 20-640): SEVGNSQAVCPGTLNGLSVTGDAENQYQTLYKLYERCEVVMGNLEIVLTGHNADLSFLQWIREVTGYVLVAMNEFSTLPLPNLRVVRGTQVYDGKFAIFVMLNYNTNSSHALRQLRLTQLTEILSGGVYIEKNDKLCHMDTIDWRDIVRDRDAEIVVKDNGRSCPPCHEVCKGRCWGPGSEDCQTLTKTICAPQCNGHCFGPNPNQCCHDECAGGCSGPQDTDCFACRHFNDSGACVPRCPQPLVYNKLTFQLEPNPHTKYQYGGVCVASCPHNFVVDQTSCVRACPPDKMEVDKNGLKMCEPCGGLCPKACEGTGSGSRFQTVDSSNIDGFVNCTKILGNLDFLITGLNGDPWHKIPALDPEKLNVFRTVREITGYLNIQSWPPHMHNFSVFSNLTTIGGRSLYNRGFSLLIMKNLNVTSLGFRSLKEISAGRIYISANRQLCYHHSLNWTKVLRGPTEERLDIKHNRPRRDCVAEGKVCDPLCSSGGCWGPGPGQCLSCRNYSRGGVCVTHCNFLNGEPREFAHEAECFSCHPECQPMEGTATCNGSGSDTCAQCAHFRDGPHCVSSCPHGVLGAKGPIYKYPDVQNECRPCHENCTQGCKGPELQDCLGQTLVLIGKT
Assay: SET, IgG vs soluble HER3-Tag
Measured Kd, listed per entry.
Write it as a number; the unit nM goes unstated.

Solved cases (2 shown):
What does the data say about its Kd? Entry: MOR13766 (antibody, human IgG1, kappa, V domains shown, tested as IgG) VH: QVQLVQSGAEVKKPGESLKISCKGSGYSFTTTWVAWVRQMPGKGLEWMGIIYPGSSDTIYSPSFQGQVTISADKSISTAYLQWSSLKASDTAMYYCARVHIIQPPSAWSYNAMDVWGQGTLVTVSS VL: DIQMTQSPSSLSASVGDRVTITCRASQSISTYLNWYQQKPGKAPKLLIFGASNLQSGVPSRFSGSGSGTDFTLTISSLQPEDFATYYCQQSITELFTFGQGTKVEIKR
0.054

Do the same for MOR13761 (antibody, human IgG1, kappa, V domains shown, tested as IgG) VH: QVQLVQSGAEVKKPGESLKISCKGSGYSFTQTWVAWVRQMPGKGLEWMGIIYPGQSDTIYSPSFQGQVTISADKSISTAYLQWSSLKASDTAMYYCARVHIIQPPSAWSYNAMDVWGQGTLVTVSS VL: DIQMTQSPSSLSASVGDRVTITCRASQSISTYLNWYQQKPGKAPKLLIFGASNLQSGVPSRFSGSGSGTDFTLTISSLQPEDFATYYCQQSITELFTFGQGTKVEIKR please
0.028

Next:
What does the data say about its Kd? Entry: MOR13759 (antibody, human IgG1, kappa, V domains shown, tested as IgG) VH: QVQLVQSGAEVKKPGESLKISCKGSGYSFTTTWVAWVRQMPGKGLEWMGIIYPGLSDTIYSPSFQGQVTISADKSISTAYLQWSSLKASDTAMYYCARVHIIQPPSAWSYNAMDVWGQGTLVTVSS VL: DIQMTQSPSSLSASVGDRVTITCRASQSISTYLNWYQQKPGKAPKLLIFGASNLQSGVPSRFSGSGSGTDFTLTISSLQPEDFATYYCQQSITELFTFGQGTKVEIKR
0.051

The values you see were collected from patent US20130273029A1.
